Attribution: patent US20250034136A1

# System: p21 induction in HCT116 cells
# PROTOCOL_DESCRIPTION: p21 induction in HCT116 cells
# Assay type: cell-based
# DETAILS: Homo sapiens, HCT-116, 24 h, HCT116 cells, 24 h compound incubation; read-out: P21_EC50
pEC50: −log10 of the molar value.
ENDPOINT: pEC50

COMPOUND | pEC50
CCc1c(N2CCN(C(=O)c3ncnc(C)c3O)CC2)c(=O)c2nc(Cl)cnc2n1CC(=O)Nc1ccc(C(F)(F)F)cc1Cl | < 5.30
CCc1c(N2CCN(C(=O)c3ncnc(C)c3O)[C@H]3CC[C@@H]32)c(=O)c2nc(N(C)CCOC)cnc2n1CC(=O)Nc1ccc(C(F)(F)F)cc1Cl | > 6.30
CCc1c(N2CCN(C(=O)c3ncnc(C)c3O)CC2)c(=O)c2nc(C=C3CC(OC)C3)cnc2n1CC(=O)Nc1ccc(C(F)(F)F)cc1Cl (stereo not drawn) | > 6.30
CCc1c(N2CCN(C(=O)c3ncnc(C)c3O)CC2)c(=O)c2nc(N(C)CCO)cnc2n1CC(=O)Nc1ccc(C(F)(F)F)cc1Cl | < 5.30

Query: Supply pEC50 value. Item: `CCc1c(N2CCN(C(=O)c3ncnc(C)c3O)CC2)c(=O)c2nc(C(N)=O)cnc2n1CC(=O)Nc1ccc(C(F)(F)F)cc1Cl`
Response: < 5.30

Query: Supply pEC50 value. Item: `CCc1c(N2CCN(C(=O)c3ncnc(C)c3O)CC2)c(=O)c2nc(N(C)C3CCC3)cnc2n1CC(=O)Nc1ccc(C(F)(F)F)cc1Cl`
Response: 5.70 to 6.30

Query: Supply pEC50 value. Item: `CCc1c(N2CCN(C(=O)c3ncnc(C)c3O)CC2)c(=O)c2nccnc2n1CC(=O)Nc1ccc(C(F)(F)F)cc1Cl`
Response: < 5.30

Query: Supply pEC50 value. Item: CCc1c(N2CCN(C(=O)c3ncnc(C)c3O)C[C@@H]2C)c(=O)c2nc(N3CC[C@H]4C[C@H]43)cnc2n1CC(=O)Nc1ccc(C(F)(F)F)cc1Cl (single isomer, unassigned)
Response: > 6.30

Query: Supply pEC50 value. Item: `CCc1c(N2CCN(C(=O)c3ncnc(C)c3O)CC2)c(=O)c2nc(NC)cnc2n1CC(=O)Nc1ccc(C(F)(F)F)cc1Cl`
Response: < 5.30

Query: Supply pEC50 value. Item: `CCc1c(N2CCN(C(=O)c3ncnc(C)c3O)C[C@@H]2C)c(=O)c2nc(N(C)C)cnc2n1CC(=O)Nc1ccc(S(F)(F)(F)(F)F)cc1Cl`
Response: > 6.30

Query: Supply pEC50 value. Item: `CCc1c(N2CCN(C(=O)c3ncnc(C)c3O)[C@H]3CC[C@@H]32)c(=O)c2nc(N(C)C)c(C)nc2n1CC(=O)Nc1ccc(C(F)(F)F)cc1F`
Response: > 6.30

Query: Supply pEC50 value. Item: `CCc1c(N2CCN(C(=O)c3cccc4oc(=O)[nH]c34)CC2)c(=O)c2ncc(C)nc2n1CC(=O)Nc1ccc(C(F)(F)F)cc1Cl`
Response: < 5.30

* * *

# TEST_SYSTEM: WRN (BV08), human Werner helicase (Uniprot Q14191, amino acids 517-1235 with L1074F point mutation) (Homo sapiens (Human), UniProt Q14191, L1074F)
# Sequence (Q14191 other isoform, or with tags, fused parts or gaps L1074F (already in the parent)): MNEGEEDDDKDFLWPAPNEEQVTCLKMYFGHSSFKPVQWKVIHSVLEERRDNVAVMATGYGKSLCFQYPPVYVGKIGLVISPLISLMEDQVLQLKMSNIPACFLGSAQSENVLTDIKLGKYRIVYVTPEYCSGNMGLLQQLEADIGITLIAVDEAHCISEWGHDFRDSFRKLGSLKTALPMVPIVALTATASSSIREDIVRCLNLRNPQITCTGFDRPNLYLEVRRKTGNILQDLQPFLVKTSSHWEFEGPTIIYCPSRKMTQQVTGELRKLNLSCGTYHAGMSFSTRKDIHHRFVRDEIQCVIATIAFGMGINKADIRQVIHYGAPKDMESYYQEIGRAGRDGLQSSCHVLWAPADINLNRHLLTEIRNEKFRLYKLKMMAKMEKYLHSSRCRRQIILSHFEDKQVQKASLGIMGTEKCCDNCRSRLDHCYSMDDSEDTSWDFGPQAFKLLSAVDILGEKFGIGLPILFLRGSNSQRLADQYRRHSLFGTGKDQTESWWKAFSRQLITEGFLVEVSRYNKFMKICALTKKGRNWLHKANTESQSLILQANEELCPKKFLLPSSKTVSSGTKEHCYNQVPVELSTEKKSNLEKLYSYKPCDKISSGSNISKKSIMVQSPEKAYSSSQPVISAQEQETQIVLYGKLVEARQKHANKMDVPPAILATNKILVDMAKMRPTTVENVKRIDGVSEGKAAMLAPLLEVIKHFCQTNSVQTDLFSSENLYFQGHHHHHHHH
# PROTOCOL_DESCRIPTION: WRN (BV08) ADP-Glo assay
# DETAILS: class symbols A-E, read-out: ADP-Glo_hWRN_IC50
# Text: Bovine skin gelatin (BSG), dimethyl sulfoxide (DMSO), Pluronic F-127 and tris(2-carboxyethyl)phosphine hydrochloride solution (TCEP) were purchased from Sigma-Aldrich (St. Louis, MO) at the highest level of purity possible. […] The reaction was stopped by the addition of the ADP-Glo Kit components (Promega; Madison, WI) as directed and the relative luminescence units (RLU) were read on an Envision 2104 (Perkin Elmer; Waltham, MA). % inhibition calculation: […]
ENDPOINT: IC50

COMPOUND | IC50
CCc1c(N2CCN(C(=O)c3ncnc(C)c3O)[C@H]3CC[C@@H]32)c(=O)c2nc(N(C)C)cnc2n1CC(=O)Nc1ccc(C(F)(F)F)cc1F | 5 to 50 nM
CCc1c(N2CCN(C(=O)c3ncnc(C)c3O)[C@H]3CC[C@@H]32)c(=O)c2nc(N3CC[C@H]4C[C@H]43)cnc2n1CC(=O)Nc1ccc(C(F)(F)F)cc1Cl (single isomer, unassigned) | ≤ 5 nM
CCc1c(N2CCN(C(=O)c3ncnc(C)c3O)CC2)c(=O)c2nc(C=C3CCOCC3)cnc2n1CC(=O)Nc1ccc(C(F)(F)F)cc1Cl | 5 to 50 nM

Now for the compound whose IC50 we want.
Query: Supply IC50 value. Item: CCc1c(N2CCN(C(=O)c3ncnc(C)c3O)CC2)c(=O)c2nc(N3CCC(C)(O)C3)cnc2n1CC(=O)Nc1ccc(C(F)(F)F)cc1Cl (stereo not drawn)
Response: 5 to 50 nM
